Recorded log10 Kd values for a group of binders are listed next.
Target: T1, human SIRPβ1 domain 1 (D1) Fc fusion (human, UniProt O00241 30-148)
T1 construct: Made in HEK293/T cells with a heterologous signal peptide; also called Human SIRPβ1 D1-Fc; Human SIRPβ1-Fc; not shown: C-terminal human IgG1 Fc
T1 sequence (O00241 30-148 limits assumed): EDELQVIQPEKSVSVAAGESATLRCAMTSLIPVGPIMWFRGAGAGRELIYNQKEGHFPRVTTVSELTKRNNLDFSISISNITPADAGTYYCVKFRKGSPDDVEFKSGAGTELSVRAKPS
Assay: Octet, Fab monovalent
Hello, just confirming the data are log10 of Kd with units of nM.

binder	measured
SB-1-4 Fab (Fab, V domains shown, Fab by papain digestion) VH: QVQLVESGGGVVQPGGSLRLSCAASGFTFSAYGMNWVRQAPGKGLEWVSAIRASGGATYYADSVKGRFTISRDNSKNTLYLQMNSLRAEDTAVYYCAKDFTEVVGWLGMDVWGQGTTVTVSS VL: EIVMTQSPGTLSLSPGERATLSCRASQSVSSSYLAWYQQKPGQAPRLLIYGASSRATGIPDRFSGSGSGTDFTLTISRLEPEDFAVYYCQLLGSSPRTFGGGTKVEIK	1.64

Task: Which log10 Kd value belongs to SB-8-15 Fab (Fab, V domains shown, Fab by papain digestion) VH: QVQLQESGPGLVKPSETLSLTCAVSGYSISAHYYWGWIRQPPGKGLEWIGSIYQSGHTYYNPSLKSRVTISVDTSKNQFSLKLSSVTAADTAVYYCARGGAMTPAGMDVWGQGTTVTVSS VL: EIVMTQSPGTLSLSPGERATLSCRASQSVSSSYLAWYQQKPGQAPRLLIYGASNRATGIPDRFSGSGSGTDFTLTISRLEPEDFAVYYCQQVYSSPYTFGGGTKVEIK ?
Result: 0.57

Task: Which log10 Kd value belongs to SB-40 Fab (Fab, V domains shown, Fab by papain digestion) VH: QVQLVQSGAEVKKPGASVKVSCKASGYTFTSYYMSWVRQAPGQGLEWMGIINPSGGSTSYAQKFQGRVTMTRDTSTSTVYMELSSLRSEDTAVYYCARDTGEYSYSPHGMDVWGQGTTVTVSS VL: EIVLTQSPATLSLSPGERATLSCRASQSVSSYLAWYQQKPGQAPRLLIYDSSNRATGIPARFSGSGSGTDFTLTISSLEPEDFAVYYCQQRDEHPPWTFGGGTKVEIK ?
Result: 2.96

Task: Which log10 Kd value belongs to SB-40-20 Fab (Fab, V domains shown, Fab by papain digestion) VH: QVQLVQSGAEVKKPGASVKVSCKASGYTFTSFYISWVRQAPGQGLEWMGIINPSSGHTNYAQKLQGRVTMTTDTSTSTAYMELSSLRSEDTAVYYCARDTGEYSYSPHGMDVWGQGTTVTVSS VL: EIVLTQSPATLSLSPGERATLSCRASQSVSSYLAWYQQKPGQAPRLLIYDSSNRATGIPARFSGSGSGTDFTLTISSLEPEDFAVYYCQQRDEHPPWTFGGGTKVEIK ?
Result: 0.97

Task: Which log10 Kd value belongs to SB-1-5 Fab (Fab, V domains shown, Fab by papain digestion) VH: QVQLVESGGGVVQPGRSLRLSCAASGFTFSAYGMNWVRQAPGKGLEWVSAISASGRSTFYADSVKGRFTISRDNSKNTLYLQMNSLRAEDTAVYYCAKDFTEVVGWLGMDVWGQGTTVTVSS VL: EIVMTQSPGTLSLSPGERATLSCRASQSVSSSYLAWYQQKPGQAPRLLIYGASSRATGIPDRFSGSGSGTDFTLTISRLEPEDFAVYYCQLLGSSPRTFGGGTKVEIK ?
Result: 1.92

Task: Which log10 Kd value belongs to SB-40-19 Fab (Fab, V domains shown, Fab by papain digestion) VH: QVQLVQSGAEVKKPGASVKVSCKASGYTFTSYYMVWVRQAPGQGLEWMGIINPSSGATNYAQKFQGRVTMTTDTSTSTAYMELRSLRSDDTAVYYCARDTGEYSYSPHGMDVWGQGTTVTVSS VL: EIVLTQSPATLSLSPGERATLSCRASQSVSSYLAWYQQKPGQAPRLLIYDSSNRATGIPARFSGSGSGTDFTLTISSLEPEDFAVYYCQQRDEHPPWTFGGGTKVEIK ?
Result: 1.65

Task: Which log10 Kd value belongs to SB-2 Fab (Fab, V domains shown, Fab by papain digestion) VH: QVQLVESGGGVVQPGRSLRLSCAASGFTFSSYGMNWVRQAPGKGLEWVAVIWYDGSNKYYADSVKGRFTISRDNSKNTLYLQMNSLRAEDTAVYYCARDQTAAAAIWGMDVWGQGTTVTVSS VL: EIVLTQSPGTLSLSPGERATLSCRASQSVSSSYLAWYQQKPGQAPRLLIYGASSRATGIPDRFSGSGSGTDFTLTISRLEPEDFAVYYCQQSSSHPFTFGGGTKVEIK ?
Result: 2.99

Task: Which log10 Kd value belongs to SB-8-16 Fab (Fab, V domains shown, Fab by papain digestion) VH: QVQLQESGPGLVKPSETLSLTCAVSGYSISAHYYWGWIRQPPGKGLEWIGSIFHSGHTYYNPSLKSRVTISVDTSKNQFSLKLSSVTAADTAVYYCARAGAMTPAGMDVWGQGTTVTVSS VL: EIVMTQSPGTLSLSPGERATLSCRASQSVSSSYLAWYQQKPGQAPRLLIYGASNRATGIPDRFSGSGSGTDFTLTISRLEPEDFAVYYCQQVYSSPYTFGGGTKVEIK ?
Result: 0.37

These measurements were taken from patent US20250026827A1.
